# TEST_SUMMARY: gradient 5% acetonitrile 3 min, to 50% in 2 min, to 85% in 15 min, held 3 min, 100 µL/min
# ASSAY_CONDITIONS: column: Zorbax Extend-C18 2.1 x 50 mm; eluents: water / acetonitrile, 0.1% formic acid
PARAMETER_MEASURED: RP-LC retention time (s)

Reference set (3 entries):
COc1cccc2c(C)nc(NC3=NCN(Cc4cccnc4)CN3)nc12 | 567
Cc1[nH]c(C(=O)N2CCC(CC(=O)NCc3ccccc3Cl)CC2)c(C)c1C(=O)OC(C)C | 876
COCCOc1ccc(C(=O)N2CCNC(=O)C2CC(=O)OC2CCCCC2)cc1 (stereo not given) | 720

[1] O=C(C1CCN(c2ccc(-n3cccn3)nn2)CC1)N1CCN(c2ncccn2)CC1
[2] CN1CCN(CCCNC(=O)c2ccc(NC(=O)C3=CSCCO3)cc2)CC1
Form field 'greater RP-LC retention time' accepts 1 or 2 ; which applies? # answer = label of selected item
2
